# credit: patent US20210332145A1

targetOrTestSystem: T1, cyno BCMA with a His tag (ACROBiosystems, Catalog No.: BCA-052H7) (cyno)
T1 construct: Bought His-tagged recombinant protein
T1 sequence (chain, as listed by the source limits assumed): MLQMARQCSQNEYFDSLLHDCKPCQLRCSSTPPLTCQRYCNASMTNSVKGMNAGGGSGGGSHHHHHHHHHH
assayOverview: ELISA, plate-coated cyno BCMA-His
Kindly supply the reported EC50 values for the records listed here.
Output spec: scalar in µg/mL, unitless text.

### Prompt Assign EC50 to the following record: SCT-Aa17(h/h) (antibody, V domains shown, Full IgG format, chimeric: human IgG1 heavy chain constant region, human kappa light chain constant region) VH: EVQLQQSGPELVKPGASVKMSCKASGYTFTSYVMDWVKQKPGQGLEWIGYINPYNDGTKYNEKFKGKATLTSDKSSSTVYMELSSLTSEDSAVYHCARSDYDYGYAMDYWGQGTSVTVSS VL: DIQMTQSPASLSLSVGETVTITCRASENIYSNLAWYQQKQGNSPQLLVYSATHLADGVPSRFSGSGSGTQYSLKINSLQSEDFGCYYCQHFWGPPWTFGGGTKLEIK
### Response 2.17

### Prompt Assign EC50 to the following record: SCT-Aa13(m/m) (antibody, V domains shown, Full IgG format: mouse IgG1 heavy chain constant region, mouse kappa light chain constant region) VH: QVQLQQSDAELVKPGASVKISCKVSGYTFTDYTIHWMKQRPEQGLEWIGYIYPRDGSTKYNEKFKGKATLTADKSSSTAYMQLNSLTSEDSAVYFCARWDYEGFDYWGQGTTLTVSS VL: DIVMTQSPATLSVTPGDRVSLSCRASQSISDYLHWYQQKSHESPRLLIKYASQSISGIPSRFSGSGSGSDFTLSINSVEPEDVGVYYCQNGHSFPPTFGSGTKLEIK
### Response 0.174

### Prompt Assign EC50 to the following record: SCT-Aa06(h/h) (antibody, V domains shown, Full IgG format, chimeric: human IgG1 heavy chain constant region, human kappa light chain constant region) VH: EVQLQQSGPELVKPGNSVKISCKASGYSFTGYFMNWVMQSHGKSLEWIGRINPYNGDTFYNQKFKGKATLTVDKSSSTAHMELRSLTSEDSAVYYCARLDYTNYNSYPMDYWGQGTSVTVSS VL: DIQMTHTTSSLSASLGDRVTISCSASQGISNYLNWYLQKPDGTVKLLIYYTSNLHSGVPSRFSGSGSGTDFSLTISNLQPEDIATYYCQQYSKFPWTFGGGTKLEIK
### Response 0.0976
